Provide the reported growth of each item.
test system: SK-MEL-2 melanoma; assay: NCI-60 one-dose screen, 48 h (100 = growth as untreated, 0 = no growth, -100 = all killed); conditions: 10 µM
About 83,000 compounds went through this panel and 20% of them were active in at least one assay; those are over-represented in the sample as a whole.
One number for each entry, in %.

molecule=O=C(O)C(Cc1ccccc1)C(=O)O measured_parameter=growth numeric_value=111
molecule="CC1(O)CCCCC1O (centres undefined)" measured_parameter=growth numeric_value=91.8
molecule="CCCCCCCCCCC1CO1 (centres undefined)" measured_parameter=growth numeric_value=118
molecule=CC(C)=NNC(N)=S measured_parameter=growth numeric_value=112
molecule=NC(=O)c1ccc(N=C(N)N=C(N)N)cc1 measured_parameter=growth numeric_value=121

Count: 2. Required value per item: growth.
1. COC(=O)c1ccc(C(C)C)cc1
2. CCOc1ccc(Br)cc1/C=N\N=C\c1cc(Br)ccc1OCC

Result ::
1: 116; 2: 109

Count: 7. Required value per item: growth.
1. COc1cc(C(=O)NC(=S)Nc2ccc3ccccc3c2)cc(OC)c1OC
2. C#CC(C(C)C)N(CCO)CCCC (centres undefined)
3. O=C(O)CCCCNC(=O)c1ccccc1
4. CCCOC(=O)C(O)c1ccccc1 (centres undefined)
5. O=c1[nH]n(-c2ccccc2)c(=O)cc1Cl
6. Cc1cc(=O)[nH]c(NN=C2CCCC2)n1
7. CC1=NN(c2ccccc2)C(=O)/C1=C\N1CC(=O)NC1=S

Result ::
1: 83.6; 2: 111; 3: 113; 4: 106; 5: 104; 6: 107; 7: 108

Count: 7. Required value per item: growth.
1. O=C1Cc2cc(O)ccc2O1
2. Cc1ccc(O)c(C(=O)c2ccccc2)c1
3. CCCCNC1(C#N)CCN(Cc2ccccc2)CC1
4. CN(C)CCC(=O)c1ccc(O)cc1
5. CCOC(=O)C(C#N)Cc1ccccc1 (centres undefined)
6. CCc1ccc(/C(C#N)=C/C=C/c2ccccc2)cc1
7. C[C@@H](c1ccccc1)[C@@H](C(=O)O)c1ccccc1

Result ::
1: 101; 2: 107; 3: 102; 4: 107; 5: 114; 6: -12.2; 7: 99.5

Count: 3. Required value per item: growth.
1. CCOC(=O)c1coc(C(=O)OCC)c1C(=O)OCC
2. CC1CCCCN1C(=S)Nc1ccc(S(=O)(=O)N2CCCCC2)cc1 (centres undefined)
3. CC1(C)S(=O)(=O)OCCOS1(=O)=O

Result ::
126
107
115

Count: 3. Required value per item: growth.
1. CC(C)CCOC(=O)c1ccccc1
2. Nc1ccc(N)c([N+](=O)[O-])c1
3. O=C1N(C[P+](c2ccccc2)(c2ccccc2)c2ccccc2)CCCN1C[P+](c1ccccc1)(c1ccccc1)c1ccccc1

Result ::
[106, 115, 122]

Count: 2. Required value per item: growth.
1. COc1ccc(C)cc1OC
2. c1cc2cccc3c4cccc5cccc(c(c1)c23)c54

Result ::
[112, 98.7]

* * *

Provide the reported growth of each item.
test system: SN12C renal; assay: NCI-60 one-dose screen, 48 h (100 = growth as untreated, 0 = no growth, -100 = all killed); conditions: 10 µM
About 83,000 compounds went through this panel and 20% of them were active in at least one assay; those are over-represented in the sample as a whole.
Give bare numbers, in %.

compound=O=C(/C=C/C(=O)c1ccccc1)c1ccccc1 unit_descriptor=% numeric_value=108
compound=CC(=O)c1ccc(C)c(N)c1 unit_descriptor=% numeric_value=96
compound=O=C1C=C(Nc2ccc([N+](=O)[O-])cc2)c2ccccc2C1=O unit_descriptor=% numeric_value=39.8
compound=CC(=O)c1c[nH]c2ccccc12 unit_descriptor=% numeric_value=99.2
compound="COc1nc(N)nc2c1ncn2C1OC(CO)CC1O (configuration not stated)" unit_descriptor=% numeric_value=103

Count: 2. Required value per item: growth.
1. CC1(O)CCCCC1O (configuration not stated)
2. CCCCCCCCCCCCCCCCC1CC(=O)OC1=O (configuration not stated)

Result ::
1: 95.1; 2: 101

* * *

tested on: TK-10 renal; test: NCI-60 one-dose screen, 48 h (100 = growth as untreated, 0 = no growth, -100 = all killed); settings: 10 µM unless noted
The panel holds about 83,000 compounds, 20% with a hit somewhere; the sample as a whole holds those more often.
Provide the reported growth of each item.
Give bare numbers, in %.

Count: 5. Required value per item: growth.
1. CCOC(=O)/C(C#N)=C/c1cccc(C)c1
2. OCC1OC(OC2C(O)C(CO)OC2(CO)OC2OC(CO)C(O)C(O)C2O)C(O)C(O)C1O (stereo not drawn)
3. O=c1cc(-c2ccccc2)oc2c1ccc1ccccc12
4. N#CC(=Nc1cccc(F)c1)C1=C(O)c2ccccc2C1=O
5. Nc1ccc(N)c([N+](=O)[O-])c1

Result ::
1: 98; 2: 106; 3: 108; 4: 110; 5: 130

Count: 6. Required value per item: growth.
1. CC(=O)c1ccc(C(C)(C)C)cc1
2. c1ccc(/C(=N\N=C(/c2ccccc2)c2cccs2)c2cccs2)cc1
3. Cc1ccc(O)c(C(=O)c2ccccc2)c1
4. CCOC(=O)Nc1nn[nH]n1
5. COc1ccc(-c2cc(-c3cc(-c4ccc(OC)cc4)nc(N)n3)nc(N)n2)cc1
6. C=CC(=O)OCCCCCCCC

Result ::
[105, 104, 111, 114, 102, 140]

Count: 2. Required value per item: growth.
1. CC1=CC(=O)c2ccccc2C1=O
2. Cc1ccncc1C(N)=O

Result ::
124
112

* * *

tested on: NCI-H226 lung; assay: NCI-60 one-dose screen, 48 h (100 = growth as untreated, 0 = no growth, -100 = all killed); settings: 10 µM
The panel holds about 83,000 compounds, 20% with a hit somewhere; the sample as a whole holds those more often.
measured parameter: growth (%)
Give bare numbers, in %.

# example entries with known answers
molecule=c1c(-c2cc(C3CC3)[nH]n2)n[nH]c1C1CC1 assayed_target="NCI-H226 lung" numeric_value=95.2
molecule=CSC(=N\N=C\c1ccc(N(C)C)cc1)/N=C/N(C)C assayed_target="NCI-H226 lung" numeric_value=90
molecule=Cc1ccc(/C(C#N)=C/c2ccc3c(c2)OCO3)cc1 assayed_target="NCI-H226 lung" numeric_value=85.9
molecule=c1csc(-c2cc(-c3cc(-c4cccs4)[nH]n3)n[nH]2)c1 assayed_target="NCI-H226 lung" numeric_value=79.1

Count: 2. Required value per item: growth.
1. CNC(=S)NC(C)(C)C
2. O=C(OCC(O)C1OC(c2ccccc2)OC(COC(=O)c2ccccc2)C1O)c1ccccc1 (stereo unspecified)

Result ::
[102, 99.6]

* * *

tested on: COLO 205 colon; experiment: NCI-60 one-dose screen, 48 h (100 = growth as untreated, 0 = no growth, -100 = all killed); details: 10 µM
About 83,000 compounds went through this panel and 20% of them were active in at least one assay; those are over-represented in the sample as a whole.
measured parameter: growth (%)
Give bare numbers, in %.

# example entries with known answers
compound=S=c1sc2ccccc2n1CN1CCCCC1 unit_descriptor=% numeric_value=103
compound=Cc1c(O)cnc2nn(-c3ccccc3)c(=N)n12 unit_descriptor=% numeric_value=123
compound=CC(=O)Nc1cccc(NC(C)=O)n1 unit_descriptor=% numeric_value=123
compound=O=C(Nc1cccc(NC(=O)Nc2cc(C(F)(F)F)ccc2Cl)c1)Nc1cc(C(F)(F)F)ccc1Cl unit_descriptor=% numeric_value=1.37
compound="CC(CN1CCCCC1)NC(=O)c1scnc1-c1ccccc1 (configuration not stated)" unit_descriptor=% numeric_value=104
compound=O=C(O)c1ccnc(Br)c1 unit_descriptor=% numeric_value=107

Moving on to the next compound.
Query :: Field request: growth | item: `COc1cc2c(cc1OC)[C@H](C(=O)O)[C@@H](c1ccc(OC(C)C)c(OC)c1)N(C)C2=O`
Result :: 118

* * *

Test system: M14 melanoma
Test: NCI-60 one-dose screen, 48 h (100 = growth as untreated, 0 = no growth, -100 = all killed)
Conditions: 10 µM
Description: Growth inhibition of the M14 human tumor cell line is measured as a screen for anti-cancer activity. Cells are grown in 96 well plates and exposed to the test compound for 48 hours. Compounds are tested at a single concentration, which is 10^-5 M for most compounds. The reported endpoint is percent growth (GI% or GIPRCNT), where numbers from 0 - 100% represent growth inhibition, and numbers from -100% - 0 represent cell death. For example, a value of 40 represents 60% growth inhibition. […]
The panel holds about 83,000 compounds, 20% with a hit somewhere; the sample as a whole holds those more often. Calls of active or inactive are those of the source. The calls were made as follows: active = growth percent below 10; inactive = the rest.
Provide the reported growth of each item.

compound=Cc1ccccc1N=C(c1ccccc1)C1C(=O)c2ccccc2C1=O measured_parameter=growth result="78% (inactive)"

Count: 7. Required value per item: growth.
1. CC(C)=NNC(N)=S
2. Cc1ccc(C(=O)NC2c3ccccc3Oc3ccccc32)cc1
3. NCCC(=O)c1ccc(Cl)cc1
4. Nc1ccc(NC(=O)c2cccc(N)c2)cc1
5. Cc1cccc(C(=O)N(C(C)C)C(C)C)c1
6. CCOC(=O)c1[nH]c(C)c(C(=O)O)c1C
7. Cc1c(C(=O)O)c(=O)n(-c2ccccc2)n1C

Result ::
65.2% (inactive)
36% (inactive)
102% (inactive)
104% (inactive)
96.1% (inactive)
124% (inactive)
104% (inactive)

Count: 7. Required value per item: growth.
1. OC1OC(COC(c2ccccc2)(c2ccccc2)c2ccccc2)C(O)C(O)C1O (stereo unspecified)
2. Cc1cc2nc(CO)[nH]c2cc1C
3. COc1cc(OC)c2ccc(=O)oc2c1
4. O=c1[nH]c(O)c(/C=C2/C=Nc3ccccc32)[nH]1
5. CC(=O)Nc1c(C)cc(C)cc1C
6. OCC(O)C(O)C(O)C(O)/C=N/O (stereo unspecified)
7. O=c1cc(-c2ccccc2)oc2c1ccc1ccccc12

Result ::
105% (inactive)
107% (inactive)
115% (inactive)
99.4% (inactive)
101% (inactive)
94.7% (inactive)
98.9% (inactive)

Count: 5. Required value per item: growth.
1. C#CCSc1nnnn1-c1ccc(Br)c(C)c1
2. CCCCN(CCCC)CCCO
3. CC(O)COc1ccc(-c2ccccc2)cc1 (stereo unspecified)
4. COc1ccc(C2OC(N)=C(O)C2=O)cc1OC (stereo unspecified)
5. CC(=O)OCC1OC(OC2=C(CC=C(C)C)C(=O)c3ccccc3C2=O)C(OC(C)=O)C(OC(C)=O)C1OC(C)=O (stereo unspecified)

Result ::
94.8% (inactive)
108% (inactive)
108% (inactive)
111% (inactive)
46.8% (inactive)
